# Test system: SW 1573
# ASSAY DETAILS: relative viability (nuclei count vs DMSO), 5 days (fraction); higher = more cells survive
# CONDITION CONTEXT: first compound 2.53 µM
Classify by relative viability. Ranges: one: < 0.4; two: ≥ 0.4 and < 0.6; three: ≥ 0.6

Query: For C=C1C(=O)O[C@@H](CCCCCCCC)[C@@H]1C(=O)O [C-75] + Nc1nc2[nH]cc(CCc3ccc(C(=O)N[C@@H](CCC(=O)O)C(=O)O)cc3)c2c(=O)[nH]1 [Pemetrexed] (partner 0.2 µM) , which relative viability bin applies?
Response: three

Query: Can you check Oc1nc(-c2ccc(C(F)(F)F)cc2)nc2c1CSCC2 [XAV939] + CC(=O)Nc1cccc(-n2c(=O)n(C3CC3)c(=O)c3c(Nc4ccc(I)cc4F)n(C)c(=O)c(C)c32)c1 [Trametinib] (partner 0.02 µM) next?
Response: two

Query: Can you check C=C1C(=O)O[C@@H](CCCCCCCC)[C@@H]1C(=O)O [C-75] + CS(=O)(=O)N1CCN(Cc2cc3nc(-c4cccc5[nH]ncc45)nc(N4CCOCC4)c3s2)CC1 [Pictilisib] (partner 1 µM) next?
Response: one

Query: Can you check Oc1nc(-c2ccc(C(F)(F)F)cc2)nc2c1CSCC2 [XAV939] + N=C(N)NC(=N)NCCc1ccccc1 [Phenformin] (partner 250 µM) next?
Response: one

Query: Can you check C=C1C(=O)O[C@@H](CCCCCCCC)[C@@H]1C(=O)O [C-75] + CC(=O)Nc1cccc(-n2c(=O)n(C3CC3)c(=O)c3c(Nc4ccc(I)cc4F)n(C)c(=O)c(C)c32)c1 [Trametinib] (partner 0.02 µM) next?
Response: two

Query: Can you check C=C1C(=O)O[C@@H](CCCCCCCC)[C@@H]1C(=O)O [C-75] + O=C(c1cc(Cc2n[nH]c(=O)c3ccccc23)ccc1F)N1CCN(C(=O)C2CC2)CC1 [Olaparib] (partner 8 µM) next?
Response: one

Query: Can you check C=C1C(=O)O[C@@H](CCCCCCCC)[C@@H]1C(=O)O [C-75] + Cc1nc(Nc2ncc(C(=O)Nc3c(C)cccc3Cl)s2)cc(N2CCN(CCO)CC2)n1 [Dasatinib] (partner 0.075 µM) next?
Response: two

Query: Can you check C=C1C(=O)O[C@@H](CCCCCCCC)[C@@H]1C(=O)O [C-75] + Cc1nc(NC(=O)N2CCC[C@H]2C(N)=O)sc1-c1ccnc(C(C)(C)C(F)(F)F)c1 [Alpelisib] (partner 2 µM) next?
Response: three

Query: Can you check Oc1nc(-c2ccc(C(F)(F)F)cc2)nc2c1CSCC2 [XAV939] + O=C(CCCCCCC(=O)Nc1ccccc1)NO [Vorinostat] (partner 1 µM) next?
Response: one

Query: Can you check C=C1C(=O)O[C@@H](CCCCCCCC)[C@@H]1C(=O)O [C-75] + CC(=O)c1c(C)c2cnc(Nc3ccc(N4CCNCC4)cn3)nc2n(C2CCCC2)c1=O [Palbociclib] (partner 0.5 µM) next?
Response: two

Query: Can you check Oc1nc(-c2ccc(C(F)(F)F)cc2)nc2c1CSCC2 [XAV939] + CS(=O)(=O)CCNCc1ccc(-c2ccc3ncnc(Nc4ccc(OCc5cccc(F)c5)c(Cl)c4)c3c2)o1 [Lapatinib] (partner 2 µM) next?
Response: three

---

# Test system: NCI-H23
# ASSAY DETAILS: relative viability (nuclei count vs DMSO), 5 days (fraction); higher = more cells survive
# CONDITION CONTEXT: first compound 0.08 µM
relative viability under 0.7 gets satisfied, anything at or over 0.7 gets not satisfied.

Query: Here's an entry: C=C1C(=O)O[C@@H](CCCCCCCC)[C@@H]1C(=O)O [C-75] + Cc1cc(Nc2cc(N3CCN(C)CC3)nc(Sc3ccc(NC(=O)C4CC4)cc3)n2)n[nH]1 [Tozasertib] (partner 0.1 µM) . Is its relative viability below 0.7?
Response: satisfied

Query: Can you check C=C1C(=O)O[C@@H](CCCCCCCC)[C@@H]1C(=O)O [C-75] + COc1cccc2cc(-c3nc([C@H]4CC[C@H](C(=O)O)CC4)n4ncnc(N)c34)[nH]c12 [OSI-027] (partner 0.5 µM) next?
Response: not satisfied

Query: Can you check C=C1C(=O)O[C@@H](CCCCCCCC)[C@@H]1C(=O)O [C-75] + N=C(N)NC(=N)NCCc1ccccc1 [Phenformin] (partner 250 µM) next?
Response: not satisfied

Query: Can you check C=C1C(=O)O[C@@H](CCCCCCCC)[C@@H]1C(=O)O [C-75] + CCNC(=O)c1noc(-c2cc(C(C)C)c(O)cc2O)c1-c1ccc(CN2CCOCC2)cc1 [Luminespib] (partner 0.01 µM) next?
Response: satisfied

Query: Can you check Oc1nc(-c2ccc(C(F)(F)F)cc2)nc2c1CSCC2 [XAV939] + O=C(c1cc(Cc2n[nH]c(=O)c3ccccc23)ccc1F)N1CCN(C(=O)C2CC2)CC1 [Olaparib] (partner 8 µM) next?
Response: satisfied

Query: Can you check C=C1C(=O)O[C@@H](CCCCCCCC)[C@@H]1C(=O)O [C-75] + COc1cc2c(Oc3ccc(NC(=O)C4(C(=O)Nc5ccc(F)cc5)CC4)cc3F)ccnc2cc1OCCCN1CCOCC1 [Foretinib] (partner 0.25 µM) next?
Response: not satisfied

Query: Can you check Oc1nc(-c2ccc(C(F)(F)F)cc2)nc2c1CSCC2 [XAV939] + C[C@]1(O)C[C@@H](c2nc(-c3ccc4ccc(-c5ccccc5)nc4c3)c3c(N)nccn32)C1 [Linsitinib] (partner 1 µM) next?
Response: satisfied

Query: Can you check Oc1nc(-c2ccc(C(F)(F)F)cc2)nc2c1CSCC2 [XAV939] + CS(=O)(=O)N1CCN(Cc2cc3nc(-c4cccc5[nH]ncc45)nc(N4CCOCC4)c3s2)CC1 [Pictilisib] (partner 1 µM) next?
Response: satisfied

Query: Can you check C=C1C(=O)O[C@@H](CCCCCCCC)[C@@H]1C(=O)O [C-75] + CC1(C)CCC(c2ccc(Cl)cc2)=C(CN2CCN(c3ccc(C(=O)NS(=O)(=O)c4ccc(N[C@H](CCN5CCOCC5)CSc5ccccc5)c(S(=O)(=O)C(F)(F)F)c4)cc3)CC2)C1 [Navitoclax] (partner 0.5 µM) next?
Response: not satisfied

Query: Can you check Oc1nc(-c2ccc(C(F)(F)F)cc2)nc2c1CSCC2 [XAV939] + COc1cc2c(Oc3ccc(NC(=O)C4(C(=O)Nc5ccc(F)cc5)CC4)cc3F)ccnc2cc1OCCCN1CCOCC1 [Foretinib] (partner 0.25 µM) next?
Response: not satisfied

---

# Tested on: NCI-H1975
# ASSAY DETAILS: relative viability (nuclei count vs DMSO), 5 days (fraction); higher = more cells survive
# CONDITION CONTEXT: first compound 0.03162 µM
I'd be grateful if you could share measured relative viability for these entries.
// return just the number, without any unit appended

Query: What reported relative viability corresponds to NC(=O)Nc1cc(-c2cccc(F)c2)sc1C(=O)N[C@H]1CCCNC1 [AZD7762] + N=C(N)NC(=N)NCCc1ccccc1 [Phenformin] (partner 250 µM) on NCI-H1975?
Response: 0.411

Query: Can you check NC(=O)Nc1cc(-c2cccc(F)c2)sc1C(=O)N[C@H]1CCCNC1 [AZD7762] + COc1cc2c(Oc3ccc(NC(=O)C4(C(=O)Nc5ccc(F)cc5)CC4)cc3F)ccnc2cc1OCCCN1CCOCC1 [Foretinib] (partner 0.25 µM) next?
Response: 0.943

Query: Can you check NC(=O)Nc1cc(-c2cccc(F)c2)sc1C(=O)N[C@H]1CCCNC1 [AZD7762] + CC(C)C[C@H](NC(=O)[C@H](Cc1ccccc1)NC(=O)c1cnccn1)B(O)O [Bortezomib] (partner 0.002 µM) next?
Response: 0.44

---

# Test system: EPLC-272H
# ASSAY DETAILS: relative viability (nuclei count vs DMSO), 5 days (fraction); higher = more cells survive
# CONDITION CONTEXT: first compound 0.01 µM
I'd be grateful if you could share measured relative viability for these entries.
// return just the number, without any unit appended

Query: # lookup: relative viability of NC(=O)Nc1cc(-c2cccc(F)c2)sc1C(=O)N[C@H]1CCCNC1 [AZD7762] + CC(C)C[C@H](NC(=O)[C@H](Cc1ccccc1)NC(=O)c1cnccn1)B(O)O [Bortezomib] (partner 0.002 µM)
Response: 0.81

Query: Can you check NC(=O)Nc1cc(-c2cccc(F)c2)sc1C(=O)N[C@H]1CCCNC1 [AZD7762] + N=C(N)NC(=N)NCCc1ccccc1 [Phenformin] (partner 250 µM) next?
Response: 0.325

Query: Can you check NC(=O)Nc1cc(-c2cccc(F)c2)sc1C(=O)N[C@H]1CCCNC1 [AZD7762] + O=C(CCCCCCC(=O)Nc1ccccc1)NO [Vorinostat] (partner 1 µM) next?
Response: 0.705

Query: Can you check NC(=O)Nc1cc(-c2cccc(F)c2)sc1C(=O)N[C@H]1CCCNC1 [AZD7762] + CC(=O)c1c(C)c2cnc(Nc3ccc(N4CCNCC4)cn3)nc2n(C2CCCC2)c1=O [Palbociclib] (partner 0.5 µM) next?
Response: 0.325

Query: Can you check NC(=O)Nc1cc(-c2cccc(F)c2)sc1C(=O)N[C@H]1CCCNC1 [AZD7762] + CCNC(=O)c1noc(-c2cc(C(C)C)c(O)cc2O)c1-c1ccc(CN2CCOCC2)cc1 [Luminespib] (partner 0.01 µM) next?
Response: 0.55

Query: Can you check NC(=O)Nc1cc(-c2cccc(F)c2)sc1C(=O)N[C@H]1CCCNC1 [AZD7762] + COc1cc2c(Oc3ccc(NC(=O)C4(C(=O)Nc5ccc(F)cc5)CC4)cc3F)ccnc2cc1OCCCN1CCOCC1 [Foretinib] (partner 0.25 µM) next?
Response: 0.676

Query: Can you check NC(=O)Nc1cc(-c2cccc(F)c2)sc1C(=O)N[C@H]1CCCNC1 [AZD7762] + O=C(c1cc(Cc2n[nH]c(=O)c3ccccc23)ccc1F)N1CCN(C(=O)C2CC2)CC1 [Olaparib] (partner 8 µM) next?
Response: 1.08
